# Study Target: UCHL1, P09936
# Sequence (P09936 whole entry, looked up, the tested form may be a part): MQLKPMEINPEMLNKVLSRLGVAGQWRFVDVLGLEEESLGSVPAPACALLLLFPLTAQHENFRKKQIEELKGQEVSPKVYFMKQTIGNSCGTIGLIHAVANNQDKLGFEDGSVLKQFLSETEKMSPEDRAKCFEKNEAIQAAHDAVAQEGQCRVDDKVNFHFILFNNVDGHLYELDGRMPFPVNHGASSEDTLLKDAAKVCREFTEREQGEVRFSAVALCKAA
# Assay Remarks: median log2 fold change of GCK-ALFA target abundance (FLAG IP / Myc IP barcode read proportion) (log2 ratio); each designed protein is fused to an ALFA-tag nanobody in HEK293 cells to bring the named protein to FLAG-tagged glucokinase (GCK); Myc marks an untargeted standard; higher = target protein stabilised (more abundant)
# Setup Conditions: target protein: 3xFLAG-MCP-GCK-ALFA reporter; HEK293 landing pad (RPLP)
Class (by median log2 fold change) -- A: < -0.4; B: ≥ -0.4 and < 0.2; C: ≥ 0.2

Binder	Class Label
uchl1_89_7577 (protein) EEERLEAARERLRRILARTRAEVERLLARLGEVPPELRAALDAFFAAAEAAIADPSTAEAALAEAEAAARRLVELAPPEYRASFRLALGRLVNALLGYAA	B
uchl1_2_7536 (protein) KTKFVGARVEIEAVDPETGKRYRSRRTLIGTASAIEAMAEEVRRLVLAFKEDVKAPVTVRVTVYASDEETAAKARAAFERMAAELAAEGITVEVEVVLVK	A
uchl1_199_7516 (protein) MTRAESIARMLGGRLLRGIRDPEKLAARAAELTRRMLERLANLPDETILETVRLLLEAIARERSLEDARAAGEAIVEVLAEERGIGEAARAVVDEVLAAA	A
uchl1_143_7489 (protein) EVRVLDVSEAEVAEILALSPEEAVAAIYARLSAAIALGVDTEVRFPAPERANDRLRLGTAVRRAARRAARDHADEIADVVIYNERDPDERPRLVVRITRK	B
uchl1_122_7442 (protein) MLTIEVDVASSVSERTLEILKEYAEELLEDAEFSVEKKSPGTKLLTIKGKLKDVSDDEILEIENKALERAGKDQSITPNERVSFGNALRKIARQVARARA	C
uchl1_2_7558 (protein) KSEFVGVKVTITAEDPETGKVYVAKRTFIGLASDIEKLVEEVKKLVLEFKADKKVPVKVKIEAVVSSEETAERLKKELEKMKKELAKEGIEVEITVKVVK	B
uchl1_143_7492 (protein) GAAAVPVLRVEITVTRDTTPEELRARLEAAVREAAARKAALEVTITVPPDPNLKLMVNTVARRVARRAAREYADTLPRLTINARDAETGKTQVVAEAVNP	B
uchl1_143_7481 (protein) SLENVEVLEVEITVTRETRPEDLYARLLAAIREAHAAGKALRITITVEPDANVRVMVGNVAKRAVRDAAQELGEPFVRTLILARDAETGKTQTLVDVEAP	C
